- Test details: Cytotoxicity evaluation in luciferase replicon cells (Cell Titer 96 AQueous One)
- Type: cell-based, human
- Settings: human; Table 1B, cellular viability
Entries and their CC50 at 72 h values follow.
Observable: CC50 at 72 h

- COC(=O)N[C@H](C(=O)N1CCC[C@H]1c1ncc(-c2csc3c(-c4ccc5[nH]c([C@@H]6CCCN6C(=O)[C@@H](NC(=O)OC)C(C)C)nc5c4)csc23)[nH]1)C(C)C [Compound A173]: 10 to 75 µM
- COC(=O)N[C@H](C(=O)N1CCCC1c1ncc(-c2ccc(-n3ccc4c(-c5cnc(C6CCCN6C(=O)[C@@H](NC(=O)OC)C(C)C)[nH]5)csc43)c(Cl)c2)[nH]1)C(C)C (some centres unmarked) [Compound A213]: 10 to 75 µM
- COC(=O)N[C@H](C(=O)N1CCC[C@H]1c1nc2ccc(-c3cc4sc(-c5ccc(-c6c[nH]c([C@@H]7CCCN7C(=O)[C@H](NC(=O)OC)c7ccccc7)n6)cc5)cc4s3)cc2[nH]1)C(C)C [Compound A215]: > 75 µM
- COC(=O)N[C@H](C(=O)N1CCCC1c1nc(-c2cc3sc(-c4cnc([C@@H]5CCCN5C(=O)[C@@H](NC(=O)OC)C(C)C)[nH]4)cc3s2)c[nH]1)C(C)C (some centres unmarked) [Compound A101]: > 75 µM
- COC(=O)N[C@H](C(=O)N1CCC[C@H]1c1nc2cc(-c3csc4c(-c5ccc(-c6cnc([C@@H]7CCCN7C(=O)[C@H](NC(=O)OC)c7ccccc7)[nH]6)cc5)csc34)ccc2[nH]1)C(C)C [Compound A169]: > 75 µM
